The following compounds are shown together with reported CC50 at 24 h values.
- experiment_summary: Cytotoxicity against human L02 cells assessed as reduction in cell viability measured after 24 hrs by MTT assay
- Type: cell-based
readout_kind: CC50 at 24 h (µM)

>>> recorded_measurement("CC1(C)[C@H]2CC[C@]1(C)N(Cc1cn(-c3ccccc3Cl)nn1)C(=O)C2")
20.1
>>> recorded_measurement("CC1(C)[C@H]2CC[C@]1(C)N(Cc1cn(-c3cccc(Cl)c3)nn1)C(=O)C2")
8.51
>>> recorded_measurement("CC1(C)[C@H]2CC[C@]1(C)N(Cc1cn(-c3ccccc3C#N)nn1)C(=O)C2")
46.1
>>> recorded_measurement("CC1(C)[C@H]2CC[C@]1(C)N(Cc1cn(-c3cccc(Br)c3)nn1)C(=O)C2")
10.5
>>> recorded_measurement("CC1(C)[C@H]2CC[C@]1(C)N(Cc1cn(-c3ccc(C#N)cc3)nn1)C(=O)C2")
15.7
>>> recorded_measurement("CC1(C)[C@H]2CC[C@]1(C)N(Cc1cn(-c3ccccc3)nn1)C(=O)C2")
6.23
>>> recorded_measurement("CC1(C)[C@H]2CC[C@]1(C)N(Cc1cn(-c3ccccc3F)nn1)C(=O)C2")
13.3
>>> recorded_measurement("C=CCNC1=C2C[C@@H](C)C[C@H](OC)[C@H](O)[C@@H](C)/C=C(\\C)[C@H](OC(N)=O)[C@@H](OC)/C=C\\C=C(/C)C(=O)NC(=CC1=O)C2=O [TANESPIMYCIN]")
11.7
